Each entry below carries its reported recombinant barcode read abundance (log10).
Assay: recombinant barcode read abundance after kanamycin selection (control-corrected) (log10(CPM+1)); higher = more efficient recombination; sequences stand for … in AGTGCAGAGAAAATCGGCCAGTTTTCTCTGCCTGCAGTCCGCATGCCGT…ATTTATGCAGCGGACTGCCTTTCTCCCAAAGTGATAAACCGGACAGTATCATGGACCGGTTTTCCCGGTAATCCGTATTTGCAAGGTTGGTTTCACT; site = the 11-nt target
assay.metric: recombinant barcode read abundance (log10)

> print(dat)
                              sequence.input  experimental.value
 1  CGCGCCCCTTGGGTTCTAACCTGTTGCGGGG [CGCGCCCCTCC_LTGcore_CT_RTGcore_CC] (site CGCGCCCCTCC) (LTG core: CT, RTG core: CC)               0.105
 2  GAGTCCTCGTGGGTTCTAACCTGTTGCCTCG [GAGTCCTCTAG_LTGcore_CG_RTGcore_CG] (site GAGTCCTCTAG) (LTG core: CG, RTG core: CG)              0.0506
 3  GGTGCCCGATGGGTTCTAACCTGTTGCCGTC [GGTGCCCCTCG_LTGcore_GA_RTGcore_GA] (site GGTGCCCCTCG) (LTG core: GA, RTG core: GA)               0.134
 4  CGCGCCCTGTGGGTTCTAACCTGTTGCGGAG [CGCGCCCCTCC_LTGcore_TG_RTGcore_CT] (site CGCGCCCCTCC) (LTG core: TG, RTG core: CT)               0.301
 5  GTCGCCCCGTGGGTTCTAACCTGTTGCTAAG [GTCGCCCCTTA_LTGcore_CG_RTGcore_CT] (site GTCGCCCCTTA) (LTG core: CG, RTG core: CT)               0.325
 6  ACGGGACCTTGGGTTCTAACCTGTTGCAGGC [ACGGGACCTCT_LTGcore_CT_RTGcore_GC] (site ACGGGACCTCT) (LTG core: CT, RTG core: GC)               0.944
 7  GTCGCCCAGTGGGTTCTAACCTGTTGCTAAG [GTCGCCCCTTA_LTGcore_AG_RTGcore_CT] (site GTCGCCCCTTA) (LTG core: AG, RTG core: CT)               0.139
 8  TTATAAACATGGGTTCTAACCTGTTGCCTAG [TTATAAACTAG_LTGcore_CA_RTGcore_CT] (site TTATAAACTAG) (LTG core: CA, RTG core: CT)               0.314
 9  AGGCCTCGCTGGGTTCTAACCTGTTGCCTAG [AGGCCTCCTAG_LTGcore_GC_RTGcore_CT] (site AGGCCTCCTAG) (LTG core: GC, RTG core: CT)               0.224
10  TAGAGGGAATGGGTTCTAACCTGTTGCGGTT [TAGAGGGCTCC_LTGcore_AA_RTGcore_AA] (site TAGAGGGCTCC) (LTG core: AA, RTG core: AA)              0.0221
11  CGAGCCCCTTGGGTTCTAACCTGTTGCTGGG [CGAGCCCCTCA_LTGcore_CT_RTGcore_CC] (site CGAGCCCCTCA) (LTG core: CT, RTG core: CC)               0.164
12  GAGTCCTCCTGGGTTCTAACCTGTTGCCTAG [GAGTCCTCTAG_LTGcore_CC_RTGcore_CT] (site GAGTCCTCTAG) (LTG core: CC, RTG core: CT)               0.191
13  AGTCTTAAATGGGTTCTAACCTGTTGCCATT [AGTCTTACTTG_LTGcore_AA_RTGcore_AA] (site AGTCTTACTTG) (LTG core: AA, RTG core: AA)              0.0761
14  GCGGGACGCTGGGTTCTAACCTGTTGCCTAG [GCGGGACCTAG_LTGcore_GC_RTGcore_CT] (site GCGGGACCTAG) (LTG core: GC, RTG core: CT)               0.137
15  GAGCCCACTTGGGTTCTAACCTGTTGCCTTA [GAGCCCACTAG_LTGcore_CT_RTGcore_TA] (site GAGCCCACTAG) (LTG core: CT, RTG core: TA)               0.296
16  AGGCGGGAATGGGTTCTAACCTGTTGCGGTT [AGGCGGGCTCC_LTGcore_AA_RTGcore_AA] (site AGGCGGGCTCC) (LTG core: AA, RTG core: AA)               0.154
17  CATATTAATTGGGTTCTAACCTGTTGCCTAT [CATATTACTAG_LTGcore_AT_RTGcore_AT] (site CATATTACTAG) (LTG core: AT, RTG core: AT)              0.0885
18  AGGCGGGGCTGGGTTCTAACCTGTTGCGGGC [AGGCGGGCTCC_LTGcore_GC_RTGcore_GC] (site AGGCGGGCTCC) (LTG core: GC, RTG core: GC)              0.0608
19  ATGTCCCCTTGGGTTCTAACCTGTTGCTCTG [ATGTCCCCTGA_LTGcore_CT_RTGcore_CA] (site ATGTCCCCTGA) (LTG core: CT, RTG core: CA)             0.00868
20  TCTACCCCTTGGGTTCTAACCTGTTGCTGCC [TCTACCCCTCA_LTGcore_CT_RTGcore_GG] (site TCTACCCCTCA) (LTG core: CT, RTG core: GG)              0.0951
21  GAGGCCTAGTGGGTTCTAACCTGTTGCCACT [GAGGCCTCTTG_LTGcore_AG_RTGcore_AG] (site GAGGCCTCTTG) (LTG core: AG, RTG core: AG)               0.159
22  GCGCGACCTTGGGTTCTAACCTGTTGCTTGC [GCGCGACCTAA_LTGcore_CT_RTGcore_GC] (site GCGCGACCTAA) (LTG core: CT, RTG core: GC)              0.0896
